B1: glmS ribozyme (parent)
chain: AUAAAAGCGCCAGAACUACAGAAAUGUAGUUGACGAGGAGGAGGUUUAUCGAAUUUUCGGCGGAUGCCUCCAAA

Variants of: B1
procedure.text: self-cleavage kobs at 2500 uM GlcN6P; higher = faster cleavage; RNA array
particulars: with glucosamine-6-phosphate
Variants at the floor of the assay were thinned out.
self-cleavage kobs at 2500 uM GlcN6P for assorted variants

[[record]]
sequence_variant = "G29U C34U G40U A42C U55A G66U"
value_observed = "< 1e-05 s⁻¹"

[[record]]
sequence_variant = "C50U G60U A64C C70A"
value_observed = "< 1e-05 s⁻¹"

[[record]]
sequence_variant = "A36C G41C A42U U46C"
value_observed = "< 1e-05 s⁻¹"

[[record]]
sequence_variant = "U57C U65G"
value_observed = "3.03e-05 s⁻¹"

[[record]]
sequence_variant = "G9U G40A A52U"
value_observed = "< 1e-05 s⁻¹"

[[record]]
sequence_variant = "C10U A15C G43U C50U U57G G59A"
value_observed = "< 1e-05 s⁻¹"

[[record]]
sequence_variant = "A42C U49A"
value_observed = "< 1e-05 s⁻¹"

[[record]]
sequence_variant = "U45A C58A"
value_observed = "0.000822 s⁻¹"


(Q) What value of measured self-cleavage kobs at 2500 uM GlcN6P is listed for U47G G62A C70G ?
(A) 0.000139 s⁻¹

(Q) What value of measured self-cleavage kobs at 2500 uM GlcN6P is listed for G13A G40A ?
(A) 5.48e-05 s⁻¹

Values compiled from the supplement of paper PMC7125110.
